Value source: patent US20260285880A1

systemName: PDE4D2 (Homo sapiens)
Sequence (Q08499 303-809 limits assumed): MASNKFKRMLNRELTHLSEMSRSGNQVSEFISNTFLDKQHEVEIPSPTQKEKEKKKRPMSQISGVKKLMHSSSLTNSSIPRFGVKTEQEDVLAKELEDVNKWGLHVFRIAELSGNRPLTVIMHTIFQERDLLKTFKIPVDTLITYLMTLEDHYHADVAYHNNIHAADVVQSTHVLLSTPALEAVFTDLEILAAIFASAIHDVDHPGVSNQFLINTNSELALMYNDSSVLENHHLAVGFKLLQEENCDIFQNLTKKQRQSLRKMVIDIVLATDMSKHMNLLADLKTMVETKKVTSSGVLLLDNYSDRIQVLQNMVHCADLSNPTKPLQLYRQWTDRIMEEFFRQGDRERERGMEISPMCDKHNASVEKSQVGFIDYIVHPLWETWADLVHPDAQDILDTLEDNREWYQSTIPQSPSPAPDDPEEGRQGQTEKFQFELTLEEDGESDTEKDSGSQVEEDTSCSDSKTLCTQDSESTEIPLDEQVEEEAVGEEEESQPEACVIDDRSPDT
assayRemarks: PDE4D2 enzyme experiment (AMP-Glo)
measurementContext: read-out: PDE4D2 IC50 Binding; enzyme assay
pIC50: −log10 of the molar value.
reportedProperty: pIC50

[[record]]
molecule = "C[C@H]1CCN1c1ccc2c(c1)CCN(c1nc3c(c(NC4(CO)CCC4)n1)[S+]([O-])CC3)C2 (some centres unmarked)"
reportedproperty = "pIC50"
observed = 9.15

[[record]]
molecule = "[O-][S+]1CCc2nc(N3CCc4cc(N5CCCC5)ccc4C3)nc(Nc3cnn(CCO)c3)c21 (centres unmarked)"
reportedproperty = "pIC50"
observed = 9.07

[[record]]
molecule = "Cn1cc(CNc2nc(N3CCc4cc(N5CCCC5)ccc4C3)nc3c2[S+]([O-])CC3)cn1 (centres unmarked)"
reportedproperty = "pIC50"
observed = 9.24

[[record]]
molecule = "CN1CC2CN(c3ccc4c(c3)CCN(c3nc5c(c(NC6(CO)CCC6)n3)[S+]([O-])CC5)C4)CC2C1 (centres unmarked)"
reportedproperty = "pIC50"
observed = 9.34

[[record]]
molecule = "CC1(O)CCN(c2ccc3c(c2)CCN(c2nc4c(c(NC5(CO)CCC5)n2)[S+]([O-])CC4)C3)C1 (centres unmarked)"
reportedproperty = "pIC50"
observed = 9.22


----------
systemName: Flpin-293-PDE4B2 cells (Homo sapiens, UniProt Q07343)
Sequence (Q07343 1-564 isoform Q07343-2): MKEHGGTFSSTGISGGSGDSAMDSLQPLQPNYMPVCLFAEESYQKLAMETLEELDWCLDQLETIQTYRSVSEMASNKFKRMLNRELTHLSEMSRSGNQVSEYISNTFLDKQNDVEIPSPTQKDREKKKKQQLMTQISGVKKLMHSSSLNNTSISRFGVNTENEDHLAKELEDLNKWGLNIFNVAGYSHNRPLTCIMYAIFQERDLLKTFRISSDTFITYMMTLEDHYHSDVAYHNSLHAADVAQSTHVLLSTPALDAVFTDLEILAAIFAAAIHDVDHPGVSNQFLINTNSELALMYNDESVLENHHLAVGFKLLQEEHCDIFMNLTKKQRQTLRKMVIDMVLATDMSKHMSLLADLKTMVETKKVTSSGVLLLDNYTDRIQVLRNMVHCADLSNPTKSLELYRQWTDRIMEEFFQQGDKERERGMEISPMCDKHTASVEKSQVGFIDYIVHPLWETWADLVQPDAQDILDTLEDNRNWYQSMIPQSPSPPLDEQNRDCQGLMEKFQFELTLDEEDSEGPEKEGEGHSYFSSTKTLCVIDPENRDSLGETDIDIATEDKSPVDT
assayRemarks: cell-based
measurementContext: read-out: Cell Inhibition % @1 nM, 1 nM, Flpin-293-PDE4B2 cells
reportedProperty: inhibition at 0.001 µM (%)

Sample answers from the record:
[[record]]
molecule = "C[C@@H]1c2ccc(Br)cc2CCN1c1nc2c(c(NC3(CO)CCC3)n1)[S+]([O-])CC2 (stereo partly shown) [Compound 124]"
systemname = "Flpin-293-PDE4B2 cells (Homo sapiens, UniProt Q07343)"
reportedproperty = "inhibition at 0.001 µM"
observed = 8.7

[[record]]
molecule = "CN1C[C@@H](Nc2nc(N3CCc4cc(N5CCCC5)ccc4C3)nc3c2[S+]([O-])CC3)CCC1=O (stereo partly shown) [Compound 185]"
systemname = "Flpin-293-PDE4B2 cells (Homo sapiens, UniProt Q07343)"
reportedproperty = "inhibition at 0.001 µM"
observed = 75.3

[[record]]
molecule = "[O-][S+]1CCc2nc(N3CCc4cc(I)ccc4C3)nc(NC3(CO)CCC3)c21 (stereo not shown) [Compound 67]"
systemname = "Flpin-293-PDE4B2 cells (Homo sapiens, UniProt Q07343)"
reportedproperty = "inhibition at 0.001 µM"
observed = 14.2

[[record]]
molecule = "[O-][S+]1CCc2nc(N3CCc4cc(N5CCC(CO)C5)ccc4C3)nc(NC3(CO)CCC3)c21 (stereo not shown) [Compound 171]"
systemname = "Flpin-293-PDE4B2 cells (Homo sapiens, UniProt Q07343)"
reportedproperty = "inhibition at 0.001 µM"
observed = 4.06

[[record]]
molecule = "O=C(O)Cc1ccc(Nc2nc(N3CCc4cc(Cl)ccc4C3)nc3c2[S@@+]([O-])CC3)cc1 [Compound 128]"
systemname = "Flpin-293-PDE4B2 cells (Homo sapiens, UniProt Q07343)"
reportedproperty = "inhibition at 0.001 µM"
observed = -0.97

[[record]]
molecule = "COc1nn(C)cc1Nc1nc(N2CCc3cc(N4CCCC4)ccc3C2)nc2c1[S+]([O-])CC2 (stereo not shown) [Compound 193]"
systemname = "Flpin-293-PDE4B2 cells (Homo sapiens, UniProt Q07343)"
reportedproperty = "inhibition at 0.001 µM"
observed = 4.88

[[record]]
molecule = "[O-][S+]1CCc2nc(N3CCc4cc(N5CCC6(COC6)C5)ccc4C3)nc(NC3(CO)CCC3)c21 (stereo not shown) [Compound 165]"
systemname = "Flpin-293-PDE4B2 cells (Homo sapiens, UniProt Q07343)"
reportedproperty = "inhibition at 0.001 µM"
observed = 10.3

[[record]]
molecule = "[O-][S+]1CCc2nc(N3CCc4cc(N5CC[C@@H](F)C5)ccc4C3)nc(NC3(CO)CCC3)c21 (stereo partly shown) [Compound 150]"
systemname = "Flpin-293-PDE4B2 cells (Homo sapiens, UniProt Q07343)"
reportedproperty = "inhibition at 0.001 µM"
observed = 11.8


1. [O-][S+]1CCc2nc(N3CCc4cc(N5CCCC5)ccc4C3)nc(Nc3cnn(CCO)c3)c21 (stereo not shown) [Compound 191]
2. [O-][S+]1CCc2nc(N3CCc4c(ncc5cc(Cl)ccc45)C3)nc(NC3(CO)CCC3)c21 (stereo not shown) [Compound 100]
3. C[C@H]1c2ccc(N3CCCC3)cc2CCN1c1nc2c(c(Nc3ncnn3C)n1)[S+]([O-])CC2 (stereo partly shown) [Compound 217]
4. C[C@H]1c2ccc(N3CCCC3)cc2CCN1c1nc2c(c(Nc3cnn(CCC#N)c3)n1)[S+]([O-])CC2 (stereo partly shown) [Compound 220]
5. [O-][S+]1CCc2nc(N3CCc4cc(Cl)c(F)cc4C3)nc(NC3(CO)CCC3)c21 (stereo not shown) [Compound 96]
(Q) Sort ascending by inhibition at 0.001 µM. Please list the labels according to the requested order.
(A) 5, 3, 2, 1, 4
(5: -2.7%, 3: 2.48%, 2: 6%, 1: 8.9%, 4: 13.8%)
